# System under test: ASGPR receptor on HepG2 cells (ternary complex with AF488-labeled antibody) (Homo sapiens)
# Construct: host or cells: HepG2
# Procedure summary: Ternary complex formation assay (flow cytometry, cell-associated AF488 fluorescence)
# Format: cell-based
# Measurement context: read-out: TCF EC50, 100 nM AF488-labeled antibody, 1 hour at 4° C., the 25th table, class symbols
pEC50: −log10 of the molar value.
Entries and their pEC50

| Molecule | Observed value |
| --- | --- |
| CC(C)CC1NC(=O)C(Cc2cnc[nH]2)NC(=O)C(Cc2c[nH]c3ccccc23)NC(=O)C(C)NC(=O)C2CSSCC(NC(=O)C(Cc3c[nH]c4ccccc34)NC(=O)C(C(C)C)NC(=O)C(CC(C)C)NC(=O)C(CCC(=O)O)NC(=O)CNC1=O)C(=O)NC(C(C)O)C(=O)N1CCCC1C(=O)N1CC(NC(=O)COc3ccc(CC(=O)NCC4OCC(Nc5cncc(C(F)(F)F)n5)C(O)C4O)cc3)CC1C(=O)NC(CC(=O)O)C(=O)N2 (centres unmarked) [compound 37] | > 7.00 |

Let's switch to this molecule now.
input: Give ASGPR receptor on HepG2 cells (ternary complex with AF488-labeled antibody) (Homo sapiens) pEC50 for CC(C)CC1NC(=O)C(Cc2cnc[nH]2)NC(=O)C(Cc2c[nH]c3ccccc23)NC(=O)C(C)NC(=O)C2CSSCC(NC(=O)C(Cc3c[nH]c4ccccc34)NC(=O)C(C(C)C)NC(=O)C(CC(C)C)NC(=O)C(CCC(=O)O)NC(=O)CNC1=O)C(=O)NC(C(C)O)C(=O)N1CCCC1C(=O)N1CC(NC(=O)CC(=O)NCC3OCC(Nc4cncc(C(F)(F)F)n4)C(O)C3O)CC1C(=O)NC(CC(=O)O)C(=O)N2 (centres unmarked) [compound 38]
output: > 7.00

----------
# System under test: ASGP receptor (biotinylated ASGPR) (Homo sapiens, UniProt P07306)
# Construct: biotin (biotinylated)
# Assay type: binding
# Measurement context: SPR, Biacore 8K, 25° C.; Table 1E, numeric bound; read-out: ASGPR KD
pKd: −log10 of the molar value.
Endpoint label: pKd

| Smiles string | System under test | pKd |
| --- | --- | --- |
| C[C@H]1O[C@H](CO)[C@H](Oc2cncc(C(F)(F)F)n2)[C@@H](O)[C@H]1O | ASGP receptor (biotinylated ASGPR) (Homo sapiens, UniProt P07306) | < 4.52 |

Let's switch to this compound now.
input: pKd lookup needed for `C[C@H]1O[C@H](C(=O)NCCOCCOCC(=O)O)[C@H](Oc2cccc(C(F)(F)F)n2)[C@@H](O)[C@H]1O` , thanks.
output: < 4.52

----------
# System under test: ASGPR receptor on HepG2 cells (ternary complex with AF488-labeled antibody) (Homo sapiens, UniProt P07306)
# Construct: host or cells: HepG2
# Procedure summary: Ternary complex formation assay (flow cytometry, cell-associated AF488 fluorescence)
# Format: cell-based
# Measurement context: read-out: TCF EC50, 100 nM AF488-labeled antibody, 1 hour at 4° C., the 25th table, class symbols
pEC50: −log10 of the molar value.
Endpoint label: pEC50

Study these solved cases before continuing.
| Compound | pEC50 |
| --- | --- |
| CC(C)CC1NC(=O)C(Cc2cnc[nH]2)NC(=O)C(Cc2c[nH]c3ccccc23)NC(=O)C(C)NC(=O)C2CSSCC(NC(=O)C(Cc3c[nH]c4ccccc34)NC(=O)C(C(C)C)NC(=O)C(CC(C)C)NC(=O)C(CCC(=O)O)NC(=O)CNC1=O)C(=O)NC(C(C)O)C(=O)N1CCCC1C(=O)N1CC(NC(=O)COCCOCC(=O)NCC3OCC(Nc4cncc(C(F)(F)F)n4)C(O)C3O)CC1C(=O)NC(CC(=O)O)C(=O)N2 (stereo not drawn) | > 7.00 |
| CC(C)CC1NC(=O)C(Cc2cnc[nH]2)NC(=O)C(Cc2c[nH]c3ccccc23)NC(=O)C(C)NC(=O)C2CSSCC(NC(=O)C(Cc3c[nH]c4ccccc34)NC(=O)C(C(C)C)NC(=O)C(CC(C)C)NC(=O)C(CCC(=O)O)NC(=O)CNC1=O)C(=O)NC(C(C)O)C(=O)N1CCCC1C(=O)N1CC(NC(=O)CNC(COCCC(=O)NCC3OCC(Nc4cncc(C(F)(F)F)n4)C(O)C3O)COCCC(=O)NCC3OCC(Nc4cncc(C(F)(F)F)n4)C(O)C3O)CC1C(=O)NC(CC(=O)O)C(=O)N2 (stereo not drawn) | > 7.00 |

Let's switch to this compound now.
input: pEC50 lookup needed for CC(C)CC1NC(=O)C(Cc2cnc[nH]2)NC(=O)C(Cc2c[nH]c3ccccc23)NC(=O)C(C)NC(=O)C2CSSCC(NC(=O)C(Cc3c[nH]c4ccccc34)NC(=O)C(C(C)C)NC(=O)C(CC(C)C)NC(=O)C(CCC(=O)O)NC(=O)CNC1=O)C(=O)NC(C(C)O)C(=O)N1CCCC1C(=O)N1CC(NC(=O)CNC(COCCC(=O)NCCOCCOCCOCCOCC3OCC(Nc4cncc(C(F)(F)F)n4)C(O)C3O)COCCC(=O)NCCOCCOCCOCCOCC3OCC(Nc4cncc(C(F)(F)F)n4)C(O)C3O)CC1C(=O)NC(CC(=O)O)C(=O)N2 (stereo not drawn) , thanks.
output: > 7.00

----------
# System under test: ASGPR (Homo sapiens, UniProt P07306)
# Construct: biotin (biotinylated)
# Sequence (P07306 1-291): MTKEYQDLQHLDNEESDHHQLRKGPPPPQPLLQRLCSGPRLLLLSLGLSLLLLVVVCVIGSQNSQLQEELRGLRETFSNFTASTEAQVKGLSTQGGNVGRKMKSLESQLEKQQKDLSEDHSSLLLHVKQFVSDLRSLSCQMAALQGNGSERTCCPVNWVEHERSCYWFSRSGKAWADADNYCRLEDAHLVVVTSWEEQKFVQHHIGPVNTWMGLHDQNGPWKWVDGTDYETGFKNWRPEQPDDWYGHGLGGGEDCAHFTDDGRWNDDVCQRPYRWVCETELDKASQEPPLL
# Procedure summary: ASGPR SPR binding
# Measurement context: second table, read-out: ASGPR KD
pKd: −log10 of the molar value.
Endpoint label: pKd

Study these solved cases before continuing.
| Molecule | Endpoint label | Observed value |
| --- | --- | --- |
| CC(C)CC1NC(=O)C(Cc2cnc[nH]2)NC(=O)C(Cc2c[nH]c3ccccc23)NC(=O)C(C)NC(=O)C2CSSCC(NC(=O)C(Cc3c[nH]c4ccccc34)NC(=O)C(C(C)C)NC(=O)C(CC(C)C)NC(=O)C(CCC(=O)O)NC(=O)CNC1=O)C(=O)NC(C(C)O)C(=O)N1CCCC1C(=O)N1CC(NC(=O)COCCOCC(=O)NCC3OCC(Nc4cncc(C(F)(F)F)n4)C(O)C3O)CC1C(=O)NC(CC(=O)O)C(=O)N2 (centres unmarked) | pKd | > 7.00 |
| CC(C)CC1NC(=O)C(Cc2cnc[nH]2)NC(=O)C(Cc2c[nH]c3ccccc23)NC(=O)C(C)NC(=O)C2CSSCC(NC(=O)C(Cc3c[nH]c4ccccc34)NC(=O)C(C(C)C)NC(=O)C(CC(C)C)NC(=O)C(CCC(=O)O)NC(=O)CNC1=O)C(=O)NC(C(C)O)C(=O)N1CCCC1C(=O)N1CC(NC(=O)c3ccc(C(=O)NCC4OCC(Nc5cncc(C(F)(F)F)n5)C(O)C4O)cc3)CC1C(=O)NC(CC(=O)O)C(=O)N2 (centres unmarked) | pKd | > 7.00 |
| CC(C)CC1NC(=O)C(Cc2cnc[nH]2)NC(=O)C(Cc2c[nH]c3ccccc23)NC(=O)C(C)NC(=O)C2CSSCC(NC(=O)C(Cc3c[nH]c4ccccc34)NC(=O)C(C(C)C)NC(=O)C(CC(C)C)NC(=O)C(CCC(=O)O)NC(=O)CNC1=O)C(=O)NC(C(C)O)C(=O)N1CCCC1C(=O)N1CC(NC(=O)CCN3CCN(CC(=O)NCC4OCC(Nc5cncc(C(F)(F)F)n5)C(O)C4O)CC3)CC1C(=O)NC(CC(=O)O)C(=O)N2 (centres unmarked) | pKd | > 7.00 |

input: pKd lookup needed for CC(C)CC1NC(=O)C(Cc2cnc[nH]2)NC(=O)C(Cc2c[nH]c3ccccc23)NC(=O)C(C)NC(=O)C2CSSCC(NC(=O)C(Cc3c[nH]c4ccccc34)NC(=O)C(C(C)C)NC(=O)C(CC(C)C)NC(=O)C(CCC(=O)O)NC(=O)CNC1=O)C(=O)NC(C(C)O)C(=O)N1CCCC1C(=O)N1CC(NC(=O)c3ccc(N4CCC(CN5CCN(CC6OCC(Nc7cncc(C(F)(F)F)n7)C(O)C6O)CC5)CC4)cc3)CC1C(=O)NC(CC(=O)O)C(=O)N2 (centres unmarked) , thanks.
output: > 7.00

input: pKd lookup needed for CC(C)CC1NC(=O)C(Cc2cnc[nH]2)NC(=O)C(Cc2c[nH]c3ccccc23)NC(=O)C(C)NC(=O)C2CSSCC(NC(=O)C(Cc3c[nH]c4ccccc34)NC(=O)C(C(C)C)NC(=O)C(CC(C)C)NC(=O)C(CCC(=O)O)NC(=O)CNC1=O)C(=O)NC(C(C)O)C(=O)N1CCCC1C(=O)N1CC(NC(=O)c3ccc(-c4ccc(C(=O)NCC5OCC(Nc6cncc(C(F)(F)F)n6)C(O)C5O)cc4)cc3)CC1C(=O)NC(CC(=O)O)C(=O)N2 (centres unmarked) , thanks.
output: > 7.00
